# assay.method.text: Pharmacokinetics single oral administration, blood and liver
# Type: in vivo
# stated.conditions: male, mouse, liver; CD1 mice; 10 mg/kg PO; read-out: Tmax in liver
parameter.measured: Tmax
Don't forget the unit after the number, please.

Need Tmax, item CC(=O)CCC1C(=O)NC(C(C)C)C(=O)NC(Cc2cc(O)cc(F)c2)C(=O)N2CCCC(N2)C(=O)OC(C(C)=CC=CC(=O)OC(C)(C)C)CC=CC=CC(O)C(C)C1O (stereo not shown) 1 h
